measured on: UniProt:P09619
Sequence (P09619 33-1106): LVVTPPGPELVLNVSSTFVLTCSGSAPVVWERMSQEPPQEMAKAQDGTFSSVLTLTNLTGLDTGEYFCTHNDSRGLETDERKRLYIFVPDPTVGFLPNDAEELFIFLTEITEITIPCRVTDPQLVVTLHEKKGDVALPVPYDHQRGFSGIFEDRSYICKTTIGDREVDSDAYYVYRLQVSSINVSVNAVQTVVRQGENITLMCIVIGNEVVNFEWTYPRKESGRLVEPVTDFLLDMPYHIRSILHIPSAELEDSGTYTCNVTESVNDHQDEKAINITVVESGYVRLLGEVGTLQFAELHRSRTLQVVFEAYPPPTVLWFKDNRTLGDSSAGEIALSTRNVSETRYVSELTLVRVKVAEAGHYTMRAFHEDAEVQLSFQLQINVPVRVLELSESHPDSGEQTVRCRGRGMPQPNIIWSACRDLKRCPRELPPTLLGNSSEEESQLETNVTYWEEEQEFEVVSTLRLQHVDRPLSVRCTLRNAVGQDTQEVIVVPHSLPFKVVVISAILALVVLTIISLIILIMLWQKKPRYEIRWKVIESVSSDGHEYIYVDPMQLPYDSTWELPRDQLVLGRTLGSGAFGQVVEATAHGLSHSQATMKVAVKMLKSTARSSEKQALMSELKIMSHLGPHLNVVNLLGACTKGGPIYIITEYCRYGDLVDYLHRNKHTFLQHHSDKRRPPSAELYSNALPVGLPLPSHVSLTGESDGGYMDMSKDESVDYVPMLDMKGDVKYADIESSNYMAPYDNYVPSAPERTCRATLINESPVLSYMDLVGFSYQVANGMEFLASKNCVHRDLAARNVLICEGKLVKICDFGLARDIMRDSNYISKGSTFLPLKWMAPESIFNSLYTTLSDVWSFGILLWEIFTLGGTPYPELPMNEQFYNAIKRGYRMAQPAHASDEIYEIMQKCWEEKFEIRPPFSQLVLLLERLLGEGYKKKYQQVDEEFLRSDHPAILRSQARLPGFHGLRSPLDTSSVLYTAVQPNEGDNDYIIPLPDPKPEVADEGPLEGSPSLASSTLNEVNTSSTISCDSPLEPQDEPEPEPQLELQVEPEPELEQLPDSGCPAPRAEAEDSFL
pIC50: −log10 of the molar value.

{"molecule": "COc1cc2nccc(Oc3ccc(NC(=O)NC4CC4)c(Cl)c3)c2cc1C(N)=O [Lenvatinib, Lenvatinib mesilate]", "pIC50": 6.80}

====

measured on: RAF1 (Homo sapiens, UniProt P04049)
Sequence (P04049 whole entry): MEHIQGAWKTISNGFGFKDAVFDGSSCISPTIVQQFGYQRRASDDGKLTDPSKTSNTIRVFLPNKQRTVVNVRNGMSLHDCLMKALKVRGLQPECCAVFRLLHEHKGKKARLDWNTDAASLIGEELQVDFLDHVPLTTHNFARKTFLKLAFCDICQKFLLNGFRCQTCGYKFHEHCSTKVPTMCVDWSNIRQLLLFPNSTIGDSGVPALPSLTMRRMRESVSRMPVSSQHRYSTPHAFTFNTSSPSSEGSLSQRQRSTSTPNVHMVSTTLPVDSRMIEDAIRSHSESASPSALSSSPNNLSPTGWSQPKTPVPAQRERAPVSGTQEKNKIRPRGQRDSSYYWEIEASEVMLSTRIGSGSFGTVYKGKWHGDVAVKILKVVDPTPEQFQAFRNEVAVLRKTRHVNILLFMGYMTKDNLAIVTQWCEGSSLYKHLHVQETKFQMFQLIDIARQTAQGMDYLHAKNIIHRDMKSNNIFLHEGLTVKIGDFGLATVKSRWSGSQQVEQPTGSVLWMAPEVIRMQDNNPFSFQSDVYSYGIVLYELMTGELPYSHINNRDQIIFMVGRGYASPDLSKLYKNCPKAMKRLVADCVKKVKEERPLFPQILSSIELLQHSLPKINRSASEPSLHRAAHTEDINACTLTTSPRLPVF
pIC50: −log10 of the molar value.

{"compound": "COc1cc2nccc(Oc3ccc(NC(=O)NC4CC4)c(Cl)c3)c2cc1C(N)=O [Lenvatinib, Lenvatinib mesilate]", "pIC50": 5.80}

====

measured on: MLK1 (Homo sapiens, UniProt P80192)
Sequence (P80192 whole entry): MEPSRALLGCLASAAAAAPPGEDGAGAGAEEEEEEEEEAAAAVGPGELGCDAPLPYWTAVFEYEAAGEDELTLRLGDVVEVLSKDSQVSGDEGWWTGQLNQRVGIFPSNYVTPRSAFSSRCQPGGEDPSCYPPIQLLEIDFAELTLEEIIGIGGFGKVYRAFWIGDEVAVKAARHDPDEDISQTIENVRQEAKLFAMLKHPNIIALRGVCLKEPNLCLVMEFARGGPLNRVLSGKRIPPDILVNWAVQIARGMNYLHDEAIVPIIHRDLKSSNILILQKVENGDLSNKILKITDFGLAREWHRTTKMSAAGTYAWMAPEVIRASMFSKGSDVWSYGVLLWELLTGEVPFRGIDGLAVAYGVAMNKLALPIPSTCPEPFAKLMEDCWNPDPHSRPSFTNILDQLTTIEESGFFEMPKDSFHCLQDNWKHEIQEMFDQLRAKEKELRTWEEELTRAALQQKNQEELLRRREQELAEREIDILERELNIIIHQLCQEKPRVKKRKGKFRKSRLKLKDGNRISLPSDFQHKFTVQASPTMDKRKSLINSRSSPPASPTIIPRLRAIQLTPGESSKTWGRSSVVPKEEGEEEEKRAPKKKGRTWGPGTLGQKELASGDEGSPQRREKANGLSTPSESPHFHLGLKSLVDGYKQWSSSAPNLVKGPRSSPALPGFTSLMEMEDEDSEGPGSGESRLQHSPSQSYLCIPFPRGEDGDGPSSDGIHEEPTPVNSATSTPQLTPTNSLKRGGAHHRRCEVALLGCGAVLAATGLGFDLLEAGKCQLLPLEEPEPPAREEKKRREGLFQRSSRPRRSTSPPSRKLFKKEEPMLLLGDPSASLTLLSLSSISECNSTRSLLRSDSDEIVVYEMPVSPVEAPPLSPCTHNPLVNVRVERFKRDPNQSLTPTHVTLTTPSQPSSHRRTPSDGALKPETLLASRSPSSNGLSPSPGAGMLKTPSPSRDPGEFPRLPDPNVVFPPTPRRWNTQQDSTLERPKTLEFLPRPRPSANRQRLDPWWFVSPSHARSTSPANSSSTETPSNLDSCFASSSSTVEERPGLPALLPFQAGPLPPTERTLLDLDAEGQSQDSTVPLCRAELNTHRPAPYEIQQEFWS
pIC50: −log10 of the molar value.

{"molecule": "COc1cc2nccc(Oc3ccc(NC(=O)NC4CC4)c(Cl)c3)c2cc1C(N)=O [Lenvatinib, Lenvatinib mesilate]", "pIC50": "< 5.00"}

====

Target protein (sequence): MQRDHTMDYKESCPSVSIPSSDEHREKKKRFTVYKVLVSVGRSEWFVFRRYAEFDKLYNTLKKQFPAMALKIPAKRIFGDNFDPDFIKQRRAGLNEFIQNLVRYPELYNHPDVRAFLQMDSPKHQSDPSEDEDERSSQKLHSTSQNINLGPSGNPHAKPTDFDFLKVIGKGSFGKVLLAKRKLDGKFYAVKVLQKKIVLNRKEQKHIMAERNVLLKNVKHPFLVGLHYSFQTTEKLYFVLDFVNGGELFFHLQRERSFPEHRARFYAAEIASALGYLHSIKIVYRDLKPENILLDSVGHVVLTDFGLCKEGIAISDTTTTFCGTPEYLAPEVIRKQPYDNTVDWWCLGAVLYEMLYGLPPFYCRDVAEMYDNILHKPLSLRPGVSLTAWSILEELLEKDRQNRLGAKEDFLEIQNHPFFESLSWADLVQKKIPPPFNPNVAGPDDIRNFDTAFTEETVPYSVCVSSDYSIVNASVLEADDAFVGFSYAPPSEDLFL
pIC50: −log10 of the molar value.
assay readout: pIC50

{"molecule": "COc1cc2nccc(Oc3ccc(NC(=O)NC4CC4)c(Cl)c3)c2cc1C(N)=O [Lenvatinib, Lenvatinib mesilate]", "experimental value": "< 5.00"}

====

measured on: BRK (Homo sapiens, UniProt Q13882)
assay readout: IC50 (nM)

{"compound": "COc1cc2nccc(Oc3ccc(NC(=O)NC4CC4)c(Cl)c3)c2cc1C(N)=O [Lenvatinib, Lenvatinib mesilate]", "assay readout": "IC50", "experimental value": 170}

====

measured on: IRAK4 (Homo sapiens)
Sequence (Q9NWZ3 whole entry): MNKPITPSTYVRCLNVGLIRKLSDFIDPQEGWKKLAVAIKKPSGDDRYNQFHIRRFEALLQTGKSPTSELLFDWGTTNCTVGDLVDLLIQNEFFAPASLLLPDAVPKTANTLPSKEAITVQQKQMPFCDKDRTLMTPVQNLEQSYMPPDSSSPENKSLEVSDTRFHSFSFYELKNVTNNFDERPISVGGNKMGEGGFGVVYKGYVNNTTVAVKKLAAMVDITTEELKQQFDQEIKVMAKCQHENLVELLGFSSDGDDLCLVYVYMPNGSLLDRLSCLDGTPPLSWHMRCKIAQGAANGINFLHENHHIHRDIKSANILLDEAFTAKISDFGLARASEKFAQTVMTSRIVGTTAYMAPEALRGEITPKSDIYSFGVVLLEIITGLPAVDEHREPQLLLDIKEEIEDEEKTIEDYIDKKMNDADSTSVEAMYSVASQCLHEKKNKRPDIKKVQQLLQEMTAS
pIC50: −log10 of the molar value.
assay readout: pIC50

{"compound": "COc1cc2nccc(Oc3ccc(NC(=O)NC4CC4)c(Cl)c3)c2cc1C(N)=O [Lenvatinib, Lenvatinib mesilate]", "experimental value": "< 5.00"}

====

measured on: PLK1 (Homo sapiens)
Sequence (P53350 whole entry): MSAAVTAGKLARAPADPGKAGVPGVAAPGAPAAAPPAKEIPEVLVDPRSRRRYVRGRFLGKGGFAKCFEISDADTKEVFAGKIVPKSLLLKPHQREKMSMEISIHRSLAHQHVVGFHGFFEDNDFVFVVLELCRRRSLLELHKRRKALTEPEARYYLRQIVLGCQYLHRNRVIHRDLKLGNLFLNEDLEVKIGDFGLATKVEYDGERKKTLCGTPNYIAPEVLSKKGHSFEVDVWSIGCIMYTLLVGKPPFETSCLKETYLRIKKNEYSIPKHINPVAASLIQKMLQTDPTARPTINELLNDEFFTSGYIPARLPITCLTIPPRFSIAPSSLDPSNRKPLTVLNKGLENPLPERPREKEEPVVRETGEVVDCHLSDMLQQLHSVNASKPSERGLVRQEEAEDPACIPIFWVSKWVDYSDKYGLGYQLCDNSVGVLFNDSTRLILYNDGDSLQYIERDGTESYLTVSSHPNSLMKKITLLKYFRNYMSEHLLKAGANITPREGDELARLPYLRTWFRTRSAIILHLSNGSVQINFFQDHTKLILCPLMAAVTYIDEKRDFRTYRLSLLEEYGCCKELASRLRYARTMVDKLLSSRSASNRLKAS
pIC50: −log10 of the molar value.
assay readout: pIC50

{"molecule": "COc1cc2nccc(Oc3ccc(NC(=O)NC4CC4)c(Cl)c3)c2cc1C(N)=O [Lenvatinib, Lenvatinib mesilate]", "measured on": "PLK1 (Homo sapiens)", "assay readout": "pIC50", "experimental value": "< 5.00"}

====

measured on: KIT(V654A) (Homo sapiens, UniProt P10721, V654A)
Sequence (P10721 26-976 V654A): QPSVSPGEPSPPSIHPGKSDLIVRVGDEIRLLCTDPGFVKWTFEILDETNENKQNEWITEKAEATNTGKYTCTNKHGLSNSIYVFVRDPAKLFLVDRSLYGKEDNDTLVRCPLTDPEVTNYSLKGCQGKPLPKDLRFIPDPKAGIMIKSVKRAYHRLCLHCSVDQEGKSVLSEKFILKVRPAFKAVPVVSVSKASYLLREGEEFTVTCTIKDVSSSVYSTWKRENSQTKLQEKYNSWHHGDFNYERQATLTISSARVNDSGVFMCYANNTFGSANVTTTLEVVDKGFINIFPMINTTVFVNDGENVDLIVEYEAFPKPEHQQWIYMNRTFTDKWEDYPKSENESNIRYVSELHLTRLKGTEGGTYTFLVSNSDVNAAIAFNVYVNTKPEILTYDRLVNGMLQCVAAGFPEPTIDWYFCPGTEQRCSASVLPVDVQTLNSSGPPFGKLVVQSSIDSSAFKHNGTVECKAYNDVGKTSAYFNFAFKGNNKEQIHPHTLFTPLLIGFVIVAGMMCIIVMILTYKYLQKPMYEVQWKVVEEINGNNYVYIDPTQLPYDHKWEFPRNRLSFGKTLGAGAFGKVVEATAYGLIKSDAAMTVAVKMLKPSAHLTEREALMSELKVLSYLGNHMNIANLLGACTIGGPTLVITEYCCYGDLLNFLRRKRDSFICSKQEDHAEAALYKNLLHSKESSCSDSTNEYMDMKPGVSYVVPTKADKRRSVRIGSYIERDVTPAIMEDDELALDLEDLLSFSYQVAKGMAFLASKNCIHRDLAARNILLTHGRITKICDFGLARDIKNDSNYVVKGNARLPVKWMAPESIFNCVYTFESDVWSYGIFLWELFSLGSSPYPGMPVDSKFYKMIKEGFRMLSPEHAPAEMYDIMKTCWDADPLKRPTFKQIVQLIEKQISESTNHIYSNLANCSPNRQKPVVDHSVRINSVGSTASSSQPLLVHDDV
assay notes: Cell free kinase inhibition assay
assay readout: IC50 (nM)

{"compound": "COc1cc2nccc(Oc3ccc(NC(=O)NC4CC4)c(Cl)c3)c2cc1C(N)=O [Lenvatinib, Lenvatinib mesilate]", "assay readout": "IC50", "experimental value": 520}
